Cited source: patent US12115209B2

# Test system: Pseudomonas aeruginosa (ATCC 27853)
# protocol-text: Minimum bactericidal concentration (MBC) assay
# Type: cell-based
# condition-summary: Tables 11-21, no unit printed
No end group written: not given here.
Record form. Attribute: MBC Pseudomonas aeruginosa. Fill in for each entry.
Give bare numbers, in µg/mL.

// worked examples, MBC Pseudomonas aeruginosa included
substance: KAMMQSGGTFGTFMAIGMGIR [KU-5878-T59A]
test-target: Pseudomonas aeruginosa (ATCC 27853)
MBC Pseudomonas aeruginosa, µg/mL: 150

substance: KKMMKKGGKFGTF-AIGMGIR [Peptide 5878-K4-d71M]
test-target: Pseudomonas aeruginosa (ATCC 27853)
MBC Pseudomonas aeruginosa, µg/mL: 2

substance: KTMMQSGGTFGKFMAIGMGIR [KU-5878-T69K]
test-target: Pseudomonas aeruginosa (ATCC 27853)
MBC Pseudomonas aeruginosa, µg/mL: 140

substance: KKMMKKGGKFG-F--IGMGIR [d 69T 71M 72A]
test-target: Pseudomonas aeruginosa (ATCC 27853)
MBC Pseudomonas aeruginosa, µg/mL: 2

substance: -KMMKKGGKFGTF-AIG-GIR [d 58K 71M 75M]
test-target: Pseudomonas aeruginosa (ATCC 27853)
MBC Pseudomonas aeruginosa, µg/mL: 4

// for each substance below, give its MBC Pseudomonas aeruginosa
1. -KMMKKGGKFGTFMAIGMGIR [5878-K4-d58K(=d59K)]
2. -KMMKKGGKFGTFMAIG-GIR [Peptide K4-d58K-d75M]
3. -KMMKK-GKFG-F--IGMGIR [d 58K 64G 69T 71M 72A]
4. KTMMQSGGTFGTWMAIGMGIR [KU-5878-F70W]
5. KKMMKKGGKFG-F-AIG-GIR [d 69T 71M 75M]

**A:**
2
150
2
300
2

// for each substance below, give its MBC Pseudomonas aeruginosa
1. RTMMQSGGTFGTFMAIGMGIR [KU-5878-K58R]
2. KTMMQSGGT-GTFMAIGMGIR [Peptide 5878-d67F]
3. KKMMKKGGKFGTFMAIGMGI- [Peptide 5878-K4-78R]
4. KKMMKKGGKFGT-MAIGMGIR [5878 K4-d70F]
5. KKMMKKGGKFG-F-AIGMGIR [Peptide K4-d69T-d71M]

**A:**
120
200
4
100
10

----------
# Test system: Methicillin-resistant Staphylococcus aureus (MRSA, ATCC 33591)
# protocol-text: Minimum bactericidal concentration (MBC) assay
# Format: cell-based
# condition-summary: Tables 11-21, no unit printed
No end group written: not given here.
Decision: MBC MRSA beneath 4 µg/mL gives 1.0; MBC MRSA meeting or exceeding 4 µg/mL gives 0.0.

substance: KKMMKKGGKFGTF-AIG-GIR [Peptide K4-d71M-d75M]
class-name: 0.0

**Q:** In plain terms, does KTMMQS-GTFGTFMAIGMGIR [Peptide 5878-d64G] come in under 4 µg/mL for MBC MRSA?
**A:** 0.0

**Q:** In plain terms, does KKMMKKGGKFGTFMAI-MGIR [Peptide 5878-K4-d74G] come in under 4 µg/mL for MBC MRSA?
**A:** 1.0

**Q:** In plain terms, does KK-MKKGGKFGTFMAIG-GIR [Peptide K4-d60M-d75M] come in under 4 µg/mL for MBC MRSA?
**A:** 0.0

**Q:** In plain terms, does KTMMQSGGTFGTFMAIGMGKR [KU-5878-I77K] come in under 4 µg/mL for MBC MRSA?
**A:** 0.0
